System: PC3
assay details: Cytoxicity / crystal violet staining, PC3
Type: cell-based
study conditions: average of triplicates, % of apoptotic cells vs DMSO controls, N.A. = not active at 10 μM
# note: exactly 50% is not below, so it is N; use Y for Cytoxicity (% cell killing at 10 μM) PC3 strictly under it

// known answers, use as guide
1. Cn1ccc2cc(/C=C3\CCc4ccc(Br)cc4C3=O)ccc21 [Compound 20] :: Y
2. CCn1ccc2cc(/C=C3\CCc4cc(OC)c(OC)cc4C3=O)ccc21 [Compound 17] :: Y
3. COc1ccc2c(c1)C(=O)/C(=C/c1ccc3c(ccn3C)c1)CC2 [Compound 14] :: Y
4. Cn1ccc2ccc(/C=C3\CCc4ccc(Br)cc4C3=O)cc21 [Compound 21] :: Y
5. COc1ccc2c(c1)C(=O)/C(=C/c1ccc3[nH]ccc3c1)CC2 [Compound 13] :: N

Now turn to the next molecule.
Request: I wonder whether CCn1ccc2cc(/C=C3\CCc4ccccc4C3=O)ccc21 [Compound 3] has Cytoxicity (% cell killing at 10 μM) PC3 below 50%. Can you tell?
Response: N
